Recorded glycan array binding signal (z-score) by entry
targetOrTestSystem: Gal(b1-3)GalNAc(b1-3)Gal(b1-4)Glc
testDetails: glycan array binding signal (z-score within array); higher = stronger binding
measurementContext: glycan notation: IUPAC condensed, linker removed
The entries come from a sample that favours the strongest signals as a whole.

binder	glycan array binding signal (z-score)
Tulipa lectin C-1 (Tulipa hybrid) (protein) MGMALVVALAVALASTVAGQQNVLLSGNTLANEESLSYGSVKFIMQNDCNLVLYGGGFQSNTASNGKKCTLTLNNNGHLIINDGLTGRVVWRNSNAQNPVGRYAAVLRPAPGTADVAIYGPAIWSTNDEFSYQESGVVPHKLGRETPNLPRMQNLLFSGQTLYGTDGMLSSNDGSTTFELSKCQLSLSLGNEVKWKVAPTVENGKENYCHVRLDHRGHLSLLNDDNVVLFRSIPTNGVEPPIGDYVLIVEKGAGYIYGPPIWNTYDNRRYKVASA	-0.226
T7P4 (Tuber borchii) (protein) GSHIGPYMSFYASSEDVRTIEEGGRTWLVGRARRADGSWQDIKLDLDNIIGNRDGHLTWGEQNFTQSASDIRFNFEGSNVPVLRAKLRNAAGGEQESDLNLGERLTNNNGDLVFN	5.7
RNase 1 (Homo sapiens) (protein) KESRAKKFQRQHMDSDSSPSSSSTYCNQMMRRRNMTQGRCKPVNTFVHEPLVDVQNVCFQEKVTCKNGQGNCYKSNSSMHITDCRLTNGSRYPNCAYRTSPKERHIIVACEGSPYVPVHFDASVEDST	0.641
TbCVNHOa (Tuber borchii), Q5MK11 (protein) GSHIGPYMSYADSSRNAVLTNGGRTLRAECRNADGNWVTSELDLDTCIGNPNGFLGWGMQNFSHSSEDIKLEEGGRKLTCRPKTVDGGFRERQGIDLNRIQNVNGRLVFQ	5.6
